We begin with a simple list: items and their reported Kb.
# Assayed Target: Growth hormone secretagogue receptor type 1 (Homo sapiens, UniProt Q92847)
# Sequence (Q92847 whole entry): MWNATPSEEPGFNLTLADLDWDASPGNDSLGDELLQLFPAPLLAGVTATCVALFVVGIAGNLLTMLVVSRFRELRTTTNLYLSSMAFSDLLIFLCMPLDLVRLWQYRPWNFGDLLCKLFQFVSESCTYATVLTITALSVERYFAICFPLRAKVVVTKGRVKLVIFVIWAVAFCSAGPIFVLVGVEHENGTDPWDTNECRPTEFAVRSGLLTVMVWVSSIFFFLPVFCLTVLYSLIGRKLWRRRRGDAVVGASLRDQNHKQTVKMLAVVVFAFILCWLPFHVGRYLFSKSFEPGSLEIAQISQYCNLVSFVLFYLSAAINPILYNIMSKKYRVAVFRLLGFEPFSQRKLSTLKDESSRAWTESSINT
# Protocol Description: Antagonist activity at GHSR1a expressed in CHO cells assessed as inhibition of ghrelin induced accumulation of intracellular calcium
# Format: functional, cell-based
Provide only the numeric value, understood in nM.

Worked cases, answers included:
# Structure Smiles, Obs Value
data = [
    ("COc1ccc(Cn2c(CCc3c[nH]c4ccccc34)nnc2[C@@H](Cc2c[nH]c3ccccc23)NC(=O)C(C)(C)N)c(OC)c1", 14),
    ("COc1ccc(Cn2c(CCc3ccccc3)nnc2[C@@H](Cc2c[nH]c3ccccc23)NC(=O)C(C)(C)N)c(OC)c1", 17),
    ("CCc1ccc(-n2c(CCc3c[nH]c4ccccc34)nnc2[C@@H](Cc2c[nH]c3ccccc23)NC(=O)Cc2ccccn2)cc1", 34),
    ("COc1ccc(Cn2c(CCc3ccccc3)nnc2[C@@H](Cc2c[nH]c3ccccc23)NC(=O)c2ccccn2)c(OC)c1", 25),
]

Note down Kb recorded for COc1ccc(Cn2c(CCc3ccccc3)nnc2[C@@H](Cc2c[nH]c3ccccc23)NC(=O)C(C)(C)N)cc1 5

----------
# Assayed Target: Growth hormone secretagogue receptor type 1 (Homo sapiens, UniProt Q92847)
# Protocol Description: Antagonist activity at GHSR1a expressed in CHO cells assessed as inhibition of ghrelin induced accumulation of intracellular calcium
# Assay type: functional, cell-based
We begin with a simple list: items and their reported Kb.
Provide only the numeric value, understood in nM.

Worked cases, answers included:
# Structure Smiles, Assayed Target, Reported Metric, Unit Spec, Obs Value
records = [
    ("CCc1ccc(-n2c(CCc3c[nH]c4ccccc34)nnc2[C@@H](Cc2c[nH]c3ccccc23)NC(=O)c2ccccn2)cc1", "Growth hormone secretagogue receptor type 1 (Homo sapiens, UniProt Q92847)", "Kb", "nM", 129),
    ("COc1ccc(Cn2c(CCc3c[nH]c4ccccc34)nnc2[C@@H](Cc2c[nH]c3ccccc23)NC(=O)c2ccccn2)cc1", "Growth hormone secretagogue receptor type 1 (Homo sapiens, UniProt Q92847)", "Kb", "nM", 102),
    ("COc1ccc(Cn2c(CCc3c[nH]c4ccccc34)nnc2[C@@H](Cc2c[nH]c3ccccc23)NC(=O)[C@H]2CCCC[C@H]2N)c(OC)c1", "Growth hormone secretagogue receptor type 1 (Homo sapiens, UniProt Q92847)", "Kb", "nM", 140),
]

Note down Kb recorded for COc1ccc(Cn2c(CCc3ccccc3)nnc2[C@@H](Cc2c[nH]c3ccccc23)NC(=O)Cc2cccnc2)cc1 93

----------
# Assayed Target: Growth hormone secretagogue receptor type 1 (Homo sapiens, UniProt Q92847)
# Protocol Description: Displacement of 125I]-His9-ghrelin from human GHSR1a expressed in LLCPK1 cells
We begin with a simple list: items and their reported IC50.
Provide only the numeric value, understood in nM.

# Structure Smiles, Reported Metric, Obs Value
rows = [
    ("CCc1ccc(Cn2c(CCc3ccccc3)nnc2[C@@H](Cc2c[nH]c3ccccc23)NC(=O)Cc2cccnc2)cc1", "IC50", 480),
]

Note down IC50 recorded for COc1ccc(Cn2c(CCc3c[nH]c4ccccc34)nnc2[C@@H](Cc2c[nH]c3ccccc23)NC(=O)c2ccccn2)cc1 1.9

Note down IC50 recorded for COc1ccc(Cn2c(CCc3ccccc3)nnc2[C@@H](Cc2c[nH]c3ccccc23)NC(=O)c2ccccc2)c(OC)c1 11.8

Note down IC50 recorded for CCc1ccc(-n2c(CCc3c[nH]c4ccccc34)nnc2[C@@H](Cc2c[nH]c3ccccc23)NC(=O)Cc2ccccn2)cc1 96

----------
# Assayed Target: Growth hormone secretagogue receptor type 1 (Homo sapiens)
# Protocol Description: Antagonist activity at GHSR1a expressed in CHO cells assessed as inhibition of ghrelin induced accumulation of intracellular calcium
# Assay type: functional, cell-based
Reported Metric: Kb
State the value with its unit after it.

# Structure Smiles, Kb
rows = [
    ("COc1ccc(Cn2c(CCc3c[nH]c4ccccc34)nnc2[C@@H](Cc2c[nH]c3ccccc23)NC(=O)c2ccccn2)c(OC)c1", "0.019 µM"),
]

Note down Kb recorded for COc1ccc(Cn2c(CCc3ccccc3)nnc2[C@@H](Cc2c[nH]c3ccccc23)NC(=O)Cc2ccccn2)cc1 0.006 µM

Note down Kb recorded for COc1ccc(Cn2c(CCc3c[nH]c4ccccc34)nnc2[C@@H](Cc2c[nH]c3ccccc23)NC(=O)c2cnccn2)c(OC)c1 0.097 µM

Note down Kb recorded for COc1ccc(-n2c(CCc3ccccc3)nnc2[C@@H](Cc2c[nH]c3ccccc23)NC(=O)c2ccccn2)c(OC)c1 0.065 µM
